# Test system: mPer2Luc MEF
# Test name: PER2::LUC luminescence relative to vehicle control (fold of vehicle); higher = higher PER2::LUC reporter signal
# Measurement setup: time after treatment 24 h; 10 µM
In all, about 5,300 compounds were measured (“PER2::LUC luminescence relative to vehicle control”: median about 0.96, highest 2% from about 1.3 on). The sample as a whole holds a higher share of the highest values than the screen did.
Decision: PER2::LUC luminescence >= 1 yields met, all other cases yield not met.

# input Could you tell me if the measured PER2::LUC luminescence of CC(C)c1cc2c(cc1S(=O)(=O)O)[C@@]1(C)CCC[C@@](C)(C(=O)O)[C@@H]1CC2 reaches 1 or more?
# output met

# input Could you tell me if the measured PER2::LUC luminescence of CC1=C(/C=C/C(C)=C/C=C/C(C)=C\CO)C(C)(C)CCC1 reaches 1 or more?
# output met

# input Could you tell me if the measured PER2::LUC luminescence of CC1=C(/C=C/C(C)=C/C=C/C(C)=C/C=C/C=C(C)/C=C/C=C(C)/C=C/C2=C(C)CCCC2(C)C)C(C)(C)CCC1 reaches 1 or more?
# output met

# input Could you tell me if the measured PER2::LUC luminescence of C=C1C[C@@]23CC[C@H]4[C@@](C)(CCC[C@@]4(C)C(=O)O)[C@@H]2CC[C@]1(O)C3 reaches 1 or more?
# output not met

# input Could you tell me if the measured PER2::LUC luminescence of Nc1ccc(/N=N/c2ccccc2)c(N)n1 reaches 1 or more?
# output met

* * *

# Tested on: mPer2Luc MEF
# Test name: PER2::LUC luminescence relative to vehicle control (fold of vehicle); higher = higher PER2::LUC reporter signal
# Measurement setup: time after treatment 30 h; 10 µM
Whole data set: some 5,300 compounds, median “PER2::LUC luminescence relative to vehicle control” near 0.96, cut for the highest 2% near 1.3. The full list was thinned out, with the highest values kept by preference.
Measured property: PER2::LUC luminescence
Answer using only a numeral; do not append any unit.

# input Item OCCOCCN1CCN(C(c2ccccc2)c2ccccc2)CC1 has what recorded PER2::LUC luminescence?
# output 0.9

# input Item NC(=O)c1ncn(C2OC(COP(=O)(O)O)C(O)C2O)c1N (stereo unspecified) has what recorded PER2::LUC luminescence?
# output 1.3

# input Item CCOc1ccc2nc(S(N)(=O)=O)sc2c1 has what recorded PER2::LUC luminescence?
# output 1.28

# input Item COc1ccc2[nH]c([S+]([O-])Cc3ncc(C)c(OC)c3C)nc2c1 (stereo unspecified) has what recorded PER2::LUC luminescence?
# output 1.08

# input Item O=C(Nc1ncc([N+](=O)[O-])s1)c1ccccc1O has what recorded PER2::LUC luminescence?
# output 1.73

# input Item CC(Nc1ccc(-c2nn[nH]n2)cc1)C(=O)O (racemic) has what recorded PER2::LUC luminescence?
# output 0.96

# input Item CC[N+](CC)(CC(=O)Nc1c(C)cccc1C)Cc1ccccc1 has what recorded PER2::LUC luminescence?
# output 0.901

# input Item COc1ccc(CNC(=O)c2sc3nc(C)cc(C)c3c2N)cc1 has what recorded PER2::LUC luminescence?
# output 0.979

# input Item CC(C(=O)O)c1ccc(-c2ccccc2)c(F)c1 (stereo unspecified) has what recorded PER2::LUC luminescence?
# output 1.06

# input Item COCCOc1nc(N)c2[nH]c(=O)n(Cc3ccccc3)c2n1 has what recorded PER2::LUC luminescence?
# output 1.13

# input Item COc1ccc(CNC(=O)Nc2ncc([N+](=O)[O-])s2)cc1 has what recorded PER2::LUC luminescence?
# output 1.27
